Documented log10 S [M] across a set of compounds
# Assay Info: Drug solubility in medium-chain triglycerides (MCT, Miglyol 812 N); SORESOS 96-well assay, miniaturized shake-flask or literature
# Recorded Conditions: decadic logarithm of molar solubility in MCTs (Miglyol 812 N), 24 h at room temperature; no literature source given
I only need the number, in M, no unit after it.

Example results:
> print(dat)
                                   compound  quantity.kind  assay.result
1  C/C(O)=C(\C#N)C(=O)Nc1ccc(C(F)(F)F)cc1 [teriflunomide]    log10 S [M]         -2.30
2  CC1(C)OC2(CCN(C3=NC(=O)C4(Cc5ccccc5C4)O3)CC2)c2cccnc21    log10 S [M]         -2.47

Read the next record carefully.
Prompt: Can you look up the measured log10 S [M] of COc1ccc(C2CCOCC2)c2sc(NC(=O)N(C)C3CCC(O)CC3)nc12 (stereo not drawn) for me?
Response: -2.61

Where do the numbers come from? From paper PMC11220795.
